Hello, the source for this data is patent US9834541B2, in case you need it.

Assay: CLint (intrinsic clearance) assay, liver microsomal incubation
Format: in vitro ADME, human
Conditions: liver microsomes, pH 7.4; human hepatic microsomes, 0.5 mg/mL protein, class symbols
Description: Also shown is the human hepatic microsomal intrinsic clearance (CLint), whereby the following classification is used: 2. CLint (Intrinsic Clearance) Assay A Tecan Genesis workstation (RWS ASY 150/8) was used to perform the microsomal incubations. Analysis was carried out using a Waters ACQUITY UPLC system coupled to an ABSciex API3000 mass spectrometer. […] The metabolic stability of each compound was determined by measurement of the change in LC-MS/MS peak area over time. […]
Reported endpoint: microsomal CLint at 0.8 μM

{"Molecule": "CC(C)(O)Cn1cc(-c2ccc(-c3cnc(N)c(Cl)c3N3CCC4(CCNC4=O)CC3)cc2)cn1 [Compound 67]", "Reported endpoint": "microsomal CLint at 0.8 μM", "Readout value": "10 to 50 µL/min/mg"}
{"Molecule": "Cn1ncc2cc(-c3cnc(N)c(Cl)c3N3CCC4(CC3)C(=O)Nc3ccccc34)ccc21 [Compound 31]", "Reported endpoint": "microsomal CLint at 0.8 μM", "Readout value": "50 to 100 µL/min/mg"}
{"Molecule": "Nc1ncc(-c2ccc3c(N)n[nH]c3c2)c(N2CCC3(CCNC3=O)CC2)c1C(F)(F)F [Compound 44]", "Reported endpoint": "microsomal CLint at 0.8 μM", "Readout value": "10 to 50 µL/min/mg"}
{"Molecule": "CN1C(=O)Cc2cc(-c3cnc(N)c(C(F)(F)F)c3N3CCC4(CCNC4=O)CC3)ccc21 [Compound 51]", "Reported endpoint": "microsomal CLint at 0.8 μM", "Readout value": "10 to 50 µL/min/mg"}
{"Molecule": "Nc1ncc(-c2ccc(N3CCOCC3)cc2)c(N2CCC3(CCNC3=O)CC2)c1Cl [Compound 18]", "Reported endpoint": "microsomal CLint at 0.8 μM", "Readout value": "50 to 100 µL/min/mg"}
{"Molecule": "CN1c2ccc(-c3cnc(N)c(Cl)c3N3CC[C@H](C#N)[C@@H](O)C3)cc2CS1(=O)=O [Compound 65]", "Reported endpoint": "microsomal CLint at 0.8 μM", "Readout value": "10 to 50 µL/min/mg"}
{"Molecule": "Cn1ncc2cc(-c3cnc(N)c(C(F)(F)F)c3N3CCC4(CC3)CC(=O)NC4=O)ccc21 [Compound 49]", "Reported endpoint": "microsomal CLint at 0.8 μM", "Readout value": "10 to 50 µL/min/mg"}
{"Molecule": "CS(=O)(=O)CCn1cc(-c2ccc(-c3cnc(N)c(Cl)c3N3CCC4(CCNC4=O)CC3)cc2)cn1 [Compound 59]", "Reported endpoint": "microsomal CLint at 0.8 μM", "Readout value": "10 to 50 µL/min/mg"}
{"Molecule": "CN1c2ccc(-c3cnc(N)c(Cl)c3N3CCC4(CC3)NCCNC4=O)cc2CS1(=O)=O [Compound 46]", "Reported endpoint": "microsomal CLint at 0.8 μM", "Readout value": "50 to 100 µL/min/mg"}
{"Molecule": "CC(C)n1cc(-c2ccc(-c3cnc(N)c(Cl)c3N3CCC4(CCNC4=O)CC3)cc2)cn1 [Compound 69]", "Reported endpoint": "microsomal CLint at 0.8 μM", "Readout value": "50 to 100 µL/min/mg"}
{"Molecule": "Nc1ncc(-c2ccccc2)c(N2CCC3(CCNC3=O)CC2)c1Cl [Compound 1]", "Reported endpoint": "microsomal CLint at 0.8 μM", "Readout value": "10 to 50 µL/min/mg"}
{"Molecule": "CN1c2ccc(-c3cnc(N)c(C(F)(F)F)c3N3CCC4(CCNC4=O)CC3)cc2CS1(=O)=O [Compound 53]", "Reported endpoint": "microsomal CLint at 0.8 μM", "Readout value": "50 to 100 µL/min/mg"}
{"Molecule": "Cn1ncc2cc(-c3cnc(N)c(C(F)(F)F)c3N3CCC(C(N)=O)CC3)ccc21 [Compound 47]", "Reported endpoint": "microsomal CLint at 0.8 μM", "Readout value": "50 to 100 µL/min/mg"}
{"Molecule": "Nc1ccc(-c2ccc(-c3cnc(N)c(Cl)c3N3CCC4(CCNC4=O)CC3)cc2)cn1 [Compound 28]", "Reported endpoint": "microsomal CLint at 0.8 μM", "Readout value": "≥ 150 µL/min/mg"}
{"Molecule": "Cn1ncc2cc(-c3cnc(N)c(Cl)c3N3CCC4(CC3)CC(=O)NC4=O)ccc21 [Compound 17]", "Reported endpoint": "microsomal CLint at 0.8 μM", "Readout value": "10 to 50 µL/min/mg"}
{"Molecule": "Cn1cc(-c2ccc(-c3cnc(N)c(C(F)(F)F)c3N3CCC4(CC3)CC(=O)NC4=O)cc2)cn1 [Compound 52]", "Reported endpoint": "microsomal CLint at 0.8 μM", "Readout value": "10 to 50 µL/min/mg"}
{"Molecule": "Cn1cc(-c2ccc(-c3cnc(N)c(Cl)c3N3CCC4(CCNC4=O)CC3)cc2)cn1 [Compound 16]", "Reported endpoint": "microsomal CLint at 0.8 μM", "Readout value": "100 to 150 µL/min/mg"}
{"Molecule": "Cn1ccc(-c2ccc(-c3cnc(N)c(Cl)c3N3CCC4(CCNC4=O)CC3)cc2)n1 [Compound 22]", "Reported endpoint": "microsomal CLint at 0.8 μM", "Readout value": "10 to 50 µL/min/mg"}
{"Molecule": "O=C1NCCC12CCN(c1c(Cl)cncc1-c1ccccc1)CC2 [Compound E60, reference compound]", "Reported endpoint": "microsomal CLint at 0.8 μM", "Readout value": "≥ 150 µL/min/mg"}
{"Molecule": "Cn1ncc2cc(-c3cnc(N)c(Cl)c3N3CCC4(CC3)NC(=O)NC4=O)ccc21 [Compound 8]", "Reported endpoint": "microsomal CLint at 0.8 μM", "Readout value": "< 10 µL/min/mg"}
{"Molecule": "Nc1ncc(-c2ccc3cc[nH]c3c2)c(N2CCC3(CC2)CNC(=O)O3)c1Cl [Compound 29]", "Reported endpoint": "microsomal CLint at 0.8 μM", "Readout value": "100 to 150 µL/min/mg"}
{"Molecule": "CCN1c2ccc(-c3cnc(N)c(Cl)c3N3CCC4(CCNC4=O)CC3)cc2CS1(=O)=O [Compound 58]", "Reported endpoint": "microsomal CLint at 0.8 μM", "Readout value": "≥ 150 µL/min/mg"}
